Could you please report measured pKi for the items listed next?
target: Gamma-aminobutyric acid receptor subunit alpha-6 (Homo sapiens, UniProt Q16445); experiment: Binding affinity to human recombinant GABAA alpha6 receptor assessed as inhibition constant incubated for 1 hrs by liquid scintillation counting analysis
Sequence (Q16445 whole entry): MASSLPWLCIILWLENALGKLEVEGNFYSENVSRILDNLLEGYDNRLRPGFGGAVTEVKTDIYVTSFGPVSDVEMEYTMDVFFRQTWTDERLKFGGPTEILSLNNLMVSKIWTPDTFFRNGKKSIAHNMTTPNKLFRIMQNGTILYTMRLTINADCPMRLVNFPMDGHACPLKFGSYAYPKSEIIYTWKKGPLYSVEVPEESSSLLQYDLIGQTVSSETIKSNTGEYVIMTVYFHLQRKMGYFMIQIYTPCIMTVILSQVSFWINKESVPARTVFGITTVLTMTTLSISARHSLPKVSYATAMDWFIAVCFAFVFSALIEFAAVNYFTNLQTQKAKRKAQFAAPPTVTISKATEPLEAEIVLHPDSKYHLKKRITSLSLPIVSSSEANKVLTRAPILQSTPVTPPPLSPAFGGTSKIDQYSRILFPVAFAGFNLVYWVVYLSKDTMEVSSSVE
pKi: −log10 of the molar value.

Example results:
Q) Query pKi for c1ccc2c(c1)[nH]c1cnc3c4cccnc4[nH]c3c12
A) < 5.00

Q) Tell me its pKi given CCOC(=O)c1ncc2[nH]c3ccc(OCc4ccccc4)cc3c2c1COC as the entry.
A) < 6.00

Q) Consider the compound c1ccc2c(c1)[nH]c1c2ncc2[nH]c3ccccc3c21 and give its recorded pKi.
A) < 6.00

Others:
Q) Please report the measured pKi for c1ccc2c(c1)[nH]c1cnc3c4ccncc4[nH]c3c12
A) < 5.00

###

target: UniProt P22303; test: Inhibition of AChE (unknown origin)
Sequence (P22303 whole entry): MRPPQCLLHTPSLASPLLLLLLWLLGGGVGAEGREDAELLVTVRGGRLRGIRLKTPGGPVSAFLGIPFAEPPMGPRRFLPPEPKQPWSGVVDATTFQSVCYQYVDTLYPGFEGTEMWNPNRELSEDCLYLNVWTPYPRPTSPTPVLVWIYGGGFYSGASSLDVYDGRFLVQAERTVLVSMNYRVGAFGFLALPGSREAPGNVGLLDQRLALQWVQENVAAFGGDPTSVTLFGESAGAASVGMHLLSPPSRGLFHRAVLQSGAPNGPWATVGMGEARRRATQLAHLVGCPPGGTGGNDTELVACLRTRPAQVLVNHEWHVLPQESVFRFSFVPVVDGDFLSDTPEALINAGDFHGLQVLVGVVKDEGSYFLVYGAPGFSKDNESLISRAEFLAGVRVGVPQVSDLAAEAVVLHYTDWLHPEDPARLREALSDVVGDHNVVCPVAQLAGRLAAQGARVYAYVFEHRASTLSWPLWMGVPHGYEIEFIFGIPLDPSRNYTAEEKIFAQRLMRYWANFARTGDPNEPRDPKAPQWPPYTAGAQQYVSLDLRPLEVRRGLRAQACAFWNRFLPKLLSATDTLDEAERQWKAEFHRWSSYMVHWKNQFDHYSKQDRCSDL
recorded.endpoint: IC50 (nM)
Answers are plain numbers, in nM.

# example entries with known answers
Q) Respond only with IC50 recorded for C[n+]1ccc2c3ccccc3n(CCCCCCCCCn3c4ccccc4c4cc[n+](C)cc43)c2c1
A) 0.6

Q) Annotate the molecule COc1ccc([C@@H]2c3[nH]c4ccccc4c3C[C@H]3C(=O)N(CCC4CCN(Cc5ccccc5)CC4)CC(=O)N23)cc1 with its measured IC50.
A) 15

***
Q) Look up and report measured IC50 for this entry: COc1ccc(-[n+]2ccc3c4ccccc4n(C)c3c2)cc1
A) 300

###

Target: Gamma-aminobutyric acid receptor subunit alpha-3 (Homo sapiens, UniProt P34903)
Sequence (P34903 whole entry): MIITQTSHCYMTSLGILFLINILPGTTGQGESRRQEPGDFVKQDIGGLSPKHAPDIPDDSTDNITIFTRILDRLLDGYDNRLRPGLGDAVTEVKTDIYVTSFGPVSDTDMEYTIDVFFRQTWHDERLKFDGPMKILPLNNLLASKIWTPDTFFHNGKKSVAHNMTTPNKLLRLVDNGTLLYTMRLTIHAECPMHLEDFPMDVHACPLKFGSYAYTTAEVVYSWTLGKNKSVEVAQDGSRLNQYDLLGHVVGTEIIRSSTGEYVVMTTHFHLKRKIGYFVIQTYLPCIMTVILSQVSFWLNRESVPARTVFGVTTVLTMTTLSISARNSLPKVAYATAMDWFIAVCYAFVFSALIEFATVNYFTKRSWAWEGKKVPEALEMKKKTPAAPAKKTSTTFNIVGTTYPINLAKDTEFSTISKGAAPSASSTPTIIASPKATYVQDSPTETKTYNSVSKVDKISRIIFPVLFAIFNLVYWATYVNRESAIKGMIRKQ
Experiment: Binding affinity to human recombinant GABAA alpha3 receptor assessed as inhibition constant incubated for 1 hrs by liquid scintillation counting analysis
recorded.endpoint: Ki (nM)
Give bare numbers, in nM.

Reference set (8 entries):
Q) Please give measured Ki of the following entry: CCOC(=O)c1ncc2[nH]c3ccc(OC)cc3c2c1COC
A) 2

Q) Consider the compound COC(=O)c1cc2c(cn1)[nH]c1ccccc12 . State its measured Ki.
A) 72

Q) Indicate the recorded Ki value for this compound: CCc1c(C(=O)OC)nc(C)c2[nH]c3cc(OC)c(OC)cc3c12
A) 4

Q) Let me know recorded Ki for CCCC(=O)c1cc2c(cn1)[nH]c1ccccc12 , thanks.
A) 21

Q) Read off the recorded Ki for Clc1ccc2c(c1)[nH]c1c2ncc2[nH]c3ccccc3c21
A) 24

Q) // Input: CCCOc1cc2c(cn1)[nH]c1ccccc12 . Output its Ki only.
A) 69

Q) // Input: COCc1c(C(=O)OC(C)C)ncc2[nH]c3ccc(OCc4ccccc4)cc3c12 . Output its Ki only.
A) 4

Q) Could you please provide reported Ki for CCOC(=O)c1ncc2[nH]c3ccc(OCc4ccccc4)cc3c2c1COC ? Thanks!
A) 6

Field: Ki. Fill in for each record below.
1. CCCOc1ccc2[nH]c3cnc(C(=O)OCC)c(COC)c3c2c1
2. CCOC(=O)c1ncc2[nH]c3ccc(O)cc3c2c1COC
3. C#Cc1ccc2[nH]c3cnc(C(=O)OC(C)(C)C)cc3c2c1
4. c1ccc2c(c1)[nH]c1cnc3c4cccnc4[nH]c3c12

A)
1. 2
2. 11
3. 100
4. 16

Below are 2 compounds. Give each one its Ki.
1. COC(=O)c1cc2c(cn1)[nH]c1ccc(NCc3ccccc3)cc12
2. COc1ccc2c(c1)[nH]c1c2ncc2[nH]c3ccccc3c21

A)
1. 49
2. 11

###

Consider the following compounds; for each one, report its pKi.
target: Gamma-aminobutyric acid receptor subunit alpha-1 (Homo sapiens, UniProt P14867); assay: Binding affinity to human recombinant GABAA alpha1 receptor assessed as inhibition constant incubated for 1 hrs by liquid scintillation counting analysis
Sequence (P14867 whole entry): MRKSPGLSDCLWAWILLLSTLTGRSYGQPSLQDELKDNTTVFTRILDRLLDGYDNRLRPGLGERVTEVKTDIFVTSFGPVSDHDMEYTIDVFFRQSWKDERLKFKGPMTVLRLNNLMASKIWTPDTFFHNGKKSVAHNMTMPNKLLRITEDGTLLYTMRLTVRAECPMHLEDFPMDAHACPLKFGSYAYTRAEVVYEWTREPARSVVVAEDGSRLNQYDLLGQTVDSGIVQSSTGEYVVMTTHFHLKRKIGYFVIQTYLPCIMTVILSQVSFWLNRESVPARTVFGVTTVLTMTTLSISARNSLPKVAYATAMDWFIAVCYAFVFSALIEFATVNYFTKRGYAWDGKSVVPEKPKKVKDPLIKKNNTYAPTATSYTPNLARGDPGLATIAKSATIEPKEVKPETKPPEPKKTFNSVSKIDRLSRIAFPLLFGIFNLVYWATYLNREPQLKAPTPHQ
Numbers only, as −log10 of the molar value.

Here is how some compounds turned out for pKi.
Q) Input CCOC(=O)c1ncc2[nH]c3ccc(O)cc3c2c1COC , output reported pKi.
A) 8.70

Q) Complete the entry with pKi for COc1ccc2c(c1)[nH]c1c2ncc2[nH]c3ccccc3c21
A) 8.52

// input: 2 compounds below; output: pKi for each
1. Clc1ccc2c(c1)[nH]c1c2ncc2[nH]c3ccccc3c21
2. C#Cc1ccc2[nH]c3cnc(C(=O)OC(C)(C)C)cc3c2c1

A)
1: 8.40; 2: 9.00
